compounds and their reported CC50 at 5 days
# Assay Method Text: MT-4 CC50 Assay (CellTiter Glo)
# Format: cell-based
# Assay Setup: human, MT-4 cells, luminescence, read-out: CC50-MT4

Compound: NS(=O)(=O)c1ccc2c(c1)N(C(=O)[C@H]1Cc3ccc(-c4cnccn4)cc3C1)CC2
CC50 at 5 days: 28.5 µM
--
Compound: C[C@H]1CN(C(=O)[C@H]2Cc3cc(-c4ccccn4)ccc3[C@@H]2C)c2cc(S(N)(=O)=O)c(F)cc21
CC50 at 5 days: ≥ 10 µM
--
Compound: NS(=O)(=O)c1ccc2c(c1)N(C(=O)[C@@H]1Cc3ccc(-c4ccccn4)cc3C1)CC2
CC50 at 5 days: ≥ 50 µM
--
Compound: NS(=O)(=O)c1ccc2c(c1)N(C(=O)C1Cc3ccc(-c4cscn4)cc3C1)CC2 (stereo not drawn)
CC50 at 5 days: 37.7 µM
--
Compound: NS(=O)(=O)c1ccc2c(c1)N(C(=O)[C@@H]1Cc3ccc(-c4ccccn4)cc3C1)CC21CC1
CC50 at 5 days: ≥ 10 µM
--
Compound: NS(=O)(=O)c1cc2c(cc1F)CCN2C(=O)[C@@H]1Cc2ccc(-c3cc(F)ccc3F)cc2C1
CC50 at 5 days: ≥ 10 µM
--
Compound: C[C@@H]1Cc2cc(F)c(S(N)(=O)=O)cc2N1C(=O)[C@@H]1Cc2ccc(-c3cc(F)ccc3F)cc2C1
CC50 at 5 days: ≥ 10 µM
--
Compound: NS(=O)(=O)c1cc2c(cc1F)CCN2C(=O)[C@@H]1Cc2ccc(-c3ccccn3)cc2C1
CC50 at 5 days: ≥ 50 µM
--
Compound: NS(=O)(=O)c1ccc2c(c1)N(C(=O)[C@@H]1Cc3ccc(-c4cnccn4)cc3C1)CC2
CC50 at 5 days: 0.306 µM
--
Compound: C[S@](=N)(=O)c1cc2c(cc1F)CCN2C(=O)[C@@H]1Cc2ccc(-c3cc(F)ccc3F)cc2C1
CC50 at 5 days: ≥ 10 µM
--
Compound: CC[C@@H]1Cc2ccc(S(N)(=O)=O)cc2N1C(=O)[C@@H]1Cc2ccc(-c3ccccn3)cc2C1
CC50 at 5 days: ≥ 10 µM
--
Compound: NS(=O)(=O)c1ccc2c(c1)N(C(=O)[C@H]1Cc3ccc(-c4ncccc4F)cc3C1)CC2
CC50 at 5 days: 1.8 µM
--
Compound: C[C@@H]1Cc2ccc(S(N)(=O)=O)cc2N1C(=O)[C@H]1Cc2cc(-c3cc(F)ccc3F)ccc2O1
CC50 at 5 days: ≥ 10 µM
--
Compound: C[C@@H]1c2cc(F)c(S(N)(=O)=O)cc2N(C(=O)[C@@H]2Cc3ccc(-c4ccccn4)cc3C2)[C@@H]1C
CC50 at 5 days: ≥ 10 µM
--
Compound: NS(=O)(=O)c1ccc2c(c1)N(C(=O)[C@@H]1Cc3ccc(-n4cccn4)cc3C1)CC2
CC50 at 5 days: ≥ 50 µM

###

# System: HSV-2 virus (MS strain)
# Assay Method Text: HSV qPCR Assay (HSV replication in ARPE-19 cells)
# Assay Setup: Human alphaherpesvirus 2, ARPE-19, read-out: EC50-HSV2-qPCR
Recorded EC50, one value per entry.
Observed Property: EC50 (nM)

Molecule: C[C@@H]1Cc2cc(F)c(S(N)(=O)=O)cc2N1C(=O)[C@@H]1Cc2ccc(-c3ccccn3)cc2C1
Measurement: 1.1
--
Molecule: NS(=O)(=O)c1ccc2c(c1)N(C(=O)[C@@H]1Cc3ccc(-c4ccccn4)cc3C1)CC2
Measurement: 1.9
--
Molecule: CC1Cc2ccc(S(N)(=O)=O)cc2N1C(=O)C1Cc2ccc(-c3ccccn3)cc2C1 (centres unmarked)
Measurement: 18.5
--
Molecule: NS(=O)(=O)c1cc2c(cc1Cl)CCN2C(=O)C1Cc2ccc(-c3ccccn3)cc2C1 (centres unmarked)
Measurement: 10.9
--
Molecule: NS(=O)(=O)c1cc2c(cc1F)C[C@@H](C(F)F)N2C(=O)[C@@H]1Cc2ccc(-c3ccccn3)cc2C1
Measurement: 1.4
